Tested on: LN229 GBM cell line
Assay: antiproliferative activity, MTT assay, LN229
Type: cell-based
Settings: Homo sapiens, LN-229, 72 h treatment
The entries below are paired with their reported IC50.

ClC(Cn1ncc2c(Nc3ccccc3)ncnc21)c1ccc(Br)cc1 (stereo not drawn); > 100 µM
ClC(Cn1ncc2c(NC3CC3)ncnc21)c1ccccc1 (stereo not drawn); > 100 µM

Note: attention shifts to another entry.
Which IC50 value belongs to Fc1ccc(CNc2ncnc3c2cnn3CC(Cl)c2ccccc2)cc1 (stereo not drawn) ?
> 100 µM

###

Assay: PAMPA, GI permeability
Assay type: in vitro ADME
Conditions: 5 h, RT, pH 7.4
parameter-measured: GI membrane retention (MR%)
Lab book: enter the figure in %, no units written.

Fc1ccc(C(Cl)Cn2ncc3c(NCc4ccccc4)ncnc32)cc1 (stereo not shown) [Compound 5]; 9.2
Fc1ccc(C(Cl)Cn2ncc3c(NCc4ccccc4F)ncnc32)cc1 (stereo not shown) [Compound 6]; 10.1
Fc1ccc(CNc2ncnc3c2cnn3CC(Cl)c2ccccc2)cc1 (stereo not shown) [Compound 4]; 7.8

Which GI membrane retention (MR%) value belongs to ClC(Cn1ncc2c(NC3CC3)ncnc21)c1ccccc1 (stereo not shown) [Compound 2] ?
34.7
